- assay_target: KMT9 (Homo sapiens, UniProt Q9Y5N5)
- assay_comment: KMT9 methyltransferase inhibition assay (3H-SAM, ETF1 substrate)
pIC50: −log10 of the molar value.
Returns True if the recorded pIC50 is greater than or equal to 5, and False otherwise.

Problem: pIC50 >= 5 for CNc1ncnc2c1ccn2[C@@H]1C[C@H](CN(CCCNCCc2ccc(Oc3ccccc3)cc2)CC[C@H](N)C(=O)O)[C@@H](O)[C@H]1O ?
Result: True

Problem: pIC50 >= 5 for Nc1ncnc2c1ncn2[C@@H]1O[C@H](CN(CCCNCCCc2ccccc2)CC[C@H](N)C(=O)O)[C@@H](O)[C@H]1O ?
Result: True

Problem: pIC50 >= 5 for CN(C)CCCN(CC[C@H](N)C(=O)O)C[C@H]1O[C@@H](n2cnc3c(N)ncnc32)[C@H](O)[C@@H]1O [compound 3b, reference compound] ?
Result: True

Problem: pIC50 >= 5 for NCCCN(CCC(N)C(F)F)C[C@H]1O[C@@H](n2cnc3c(N)ncnc32)[C@H](O)[C@@H]1O (some centres unmarked) ?
Result: False

Problem: pIC50 >= 5 for Nc1ncnc2c1ncn2[C@@H]1O[C@H](CN(CCCNCCc2ccccc2)CC[C@H](N)C(=O)O)[C@@H](O)[C@H]1O ?
Result: True

Problem: pIC50 >= 5 for Nc1ncnc2c1ncn2[C@@H]1O[C@H](CN(CCCNCc2ccccc2)CC[C@H](N)C(=O)O)[C@@H](O)[C@H]1O ?
Result: True

Problem: pIC50 >= 5 for C[C@@H](CN(CCCN)C[C@H]1O[C@@H](n2cnc3c(N)ncnc32)[C@H](O)[C@@H]1O)N1CCC(O)CC1 ?
Result: False

Problem: pIC50 >= 5 for NCCCN(C[C@H]1C=CCN1)C[C@H]1O[C@@H](n2cnc3c(N)ncnc32)[C@H](O)[C@@H]1O ?
Result: False

###

- assay_target: KMT9 (Homo sapiens)
- Sequence (Q9Y5N5 1-214): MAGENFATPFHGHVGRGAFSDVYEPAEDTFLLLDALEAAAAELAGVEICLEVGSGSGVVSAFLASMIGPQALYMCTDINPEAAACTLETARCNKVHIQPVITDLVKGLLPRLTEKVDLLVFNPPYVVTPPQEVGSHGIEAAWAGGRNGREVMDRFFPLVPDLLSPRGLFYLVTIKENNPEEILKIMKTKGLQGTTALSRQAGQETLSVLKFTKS
- Sequence (Q9UI30 1-125 partner): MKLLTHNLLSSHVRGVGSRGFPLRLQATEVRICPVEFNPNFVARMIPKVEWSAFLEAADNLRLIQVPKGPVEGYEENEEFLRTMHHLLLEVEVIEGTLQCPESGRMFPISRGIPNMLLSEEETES
- assay_comment: Microscale thermophoresis (MST) binding assay
- experimental_setup: MST, binding to KMT9; read-out: Kd
measurement_label: pKd
Formally, pKd is defined as -log10 of the concentration c, with c in mol/L.

pKd in this record for Nc1ncnc2c1ncn2[C@@H]1O[C@H](CSCC[C@H](N)C(=O)O)[C@@H](O)[C@H]1O [SAH, S-adenosyl-L-homocysteine, reference compound] : 4.96

pKd in this record for Nc1ncnc2c1ncn2[C@@H]1O[C@H](CN(CC[C@H](N)C(=O)O)CC[C@H](N)C(=O)O)[C@@H](O)[C@H]1O : 5.17

###

I'd appreciate it if you could supply IC50 values for the items below.
- assay_target: KMT9 (Homo sapiens)
- assay_comment: KMT9 methyltransferase inhibition assay (3H-SAM, ETF1 substrate)
Reply numerically in µM, unit not repeated.

// IC50 (KMT9 (Homo sapiens)) for Nc1ncnc2c1ncn2[C@@H]1O[C@H](CN(CC[C@H](N)C(=O)O)CC[C@H](N)c2ccccc2)[C@@H](O)[C@H]1O = 3

// IC50 (KMT9 (Homo sapiens)) for CNc1ncnc2c1ccn2[C@@H]1C[C@H](CN(CCCNCCc2ccc(Oc3ccc(Cl)cc3)c(F)c2)CC[C@H](N)C(=O)O)[C@@H](O)[C@H]1O = 0.16

// IC50 (KMT9 (Homo sapiens)) for NCCCN(CCC(N)C(F)(F)F)C[C@H]1O[C@@H](n2cnc3c(N)ncnc32)[C@H](O)[C@@H]1O (stereo partly drawn) = 500

###

- assay_target: KMT9 (Homo sapiens, UniProt Q9Y5N5)
- assay_comment: Microscale thermophoresis (MST) binding assay
- experimental_setup: MST, binding to KMT9; given in nM; read-out: Kd
- Protocol: To determine the binding affinity of the compound and KMT9, microscale thermophoresis (MST) analysis was performed with a NanoTemper Monolith NT.115 instrument (NanoTemper Technologies GmbH). KMT9 was labeled with a RED-Tris-NTA labeling kit (NanoTemper Technologies GmbH) based on the manufacturer’s instructions. Buffer including 25 mM HEPES (pH 7.5), 100 mM NaCl, 1 mM DTT and 0.05% Tween was used for the reaction buffer. […]
measurement_label: Kd (nM)
Reply numerically in nM, unit not repeated.

Kd in this record for CNc1ncnc2c1ccn2[C@@H]1C[C@H](CN(CCCNCCc2ccc(Oc3ccc(Cl)cc3)c(F)c2)CC[C@H](N)C(=O)O)[C@@H](O)[C@H]1O : 12

Kd in this record for CNc1ncnc2c1ccn2[C@@H]1C[C@H](CN(CCCNCCc2ccccc2)CC[C@H](N)C(=O)O)[C@@H](O)[C@H]1O : 30

###

- assay_target: KMT9 (Homo sapiens, UniProt Q9Y5N5)
- Sequence (Q9Y5N5 1-214): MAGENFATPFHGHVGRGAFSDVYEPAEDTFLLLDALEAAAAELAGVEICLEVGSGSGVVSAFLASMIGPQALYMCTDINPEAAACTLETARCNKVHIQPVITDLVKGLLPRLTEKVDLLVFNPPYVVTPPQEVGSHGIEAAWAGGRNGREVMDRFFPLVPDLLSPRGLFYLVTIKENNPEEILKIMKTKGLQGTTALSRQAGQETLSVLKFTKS
- Sequence (Q9UI30 1-125 partner): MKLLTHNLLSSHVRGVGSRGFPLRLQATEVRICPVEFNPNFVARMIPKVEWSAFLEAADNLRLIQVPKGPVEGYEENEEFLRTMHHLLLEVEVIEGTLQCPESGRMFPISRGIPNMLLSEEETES
- assay_comment: Microscale thermophoresis (MST) binding assay
I'd appreciate it if you could supply pKd values for the items below.
Formally, pKd is defined as -log10 of the concentration c, with c in mol/L.

pKd in this record for Nc1ncnc2c1ncn2[C@@H]1O[C@H](CN(CCCNCCc2ccccc2)CC[C@H](N)C(=O)O)[C@@H](O)[C@H]1O : 8.00

pKd in this record for Nc1ncnc2c1ncn2[C@@H]1O[C@H](CN(CCCNCCCc2ccccc2)CC[C@H](N)C(=O)O)[C@@H](O)[C@H]1O : 7.70

pKd in this record for Nc1ncnc2c1ncn2[C@@H]1O[C@H](CN(CC[C@H](N)C(=O)O)CC[C@H](N)c2ccccc2)[C@@H](O)[C@H]1O : 4.82

pKd in this record for NCCCN(CCC(N)C(F)F)C[C@H]1O[C@@H](n2cnc3c(N)ncnc32)[C@H](O)[C@@H]1O (stereo partly drawn) : 4.00

pKd in this record for Nc1ncnc2c1ncn2[C@@H]1O[C@H](CN(CCCNCc2ccccc2)CC[C@H](N)C(=O)O)[C@@H](O)[C@H]1O : 7.40

###

I'd appreciate it if you could supply ΔTm at 500 µM values for the items below.
- assay_target: KMT9 (Homo sapiens)
- assay_comment: Thermal shift assay (SyproOrange)
- Type: binding
- experimental_setup: read-out: ΔTm
Reply numerically in °C, unit not repeated.

ΔTm at 500 µM in this record for CN(C)CCCN(CC[C@H](N)C(=O)O)C[C@H]1O[C@@H](n2cnc3c(N)ncnc32)[C@H](O)[C@@H]1O [compound 3b, reference compound] : 9.55

ΔTm at 500 µM in this record for Nc1ncnc2c1ncn2[C@@H]1O[C@H](CN(CCCNCc2ccccc2)CC[C@H](N)C(=O)O)[C@@H](O)[C@H]1O : 19.6

ΔTm at 500 µM in this record for NCCCN(CCC(N)C(F)F)C[C@H]1O[C@@H](n2cnc3c(N)ncnc32)[C@H](O)[C@@H]1O (some centres unmarked) : 2.86

ΔTm at 500 µM in this record for NCCCN(C[C@H]1C=CCN1)C[C@H]1O[C@@H](n2cnc3c(N)ncnc32)[C@H](O)[C@@H]1O : -0.52

ΔTm at 500 µM in this record for Nc1ncnc2c1ncn2[C@@H]1O[C@H](CN(CCCNCCc2ccccc2)CC[C@H](N)C(=O)O)[C@@H](O)[C@H]1O : 20.9
